assay: chemical genetic growth profiling, strain panel (AID 1159580);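 also: tested at 20 µM; growth read once vehicle control cultures reached saturation at 30 °C; 1 = growth at the plate median or of vehicle wells; lower values mean less growth of the strain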; settings: S. cerevisiae deletion strains, growth OD, locus YEL061C, strain CIN8 (second series), hits give low values
The whole screen tested about 5,500 compounds, of which about 2,000 (36%) were called active. Roughly 18% stayed inconclusive and do not appear here. The list shows a part of the results.
normalized growth reference
reported.property: normalized growth

molecule: Cc1cccc(C)c1NC(=O)C1CCCCN1C (stereo unspecified)
reported.property: normalized growth
result: 0.992 (inactive)
//
molecule: COC(=O)[C@@H]1OC(=O)C2OC23[C@@]1(C)CCC1[C@@]2(C)CCC(=O)C(C)(C)C2C[C@@H](OC(C)=O)[C@]13C (stereo partly specified)
reported.property: normalized growth
result: 1.03 (inactive)
//
molecule: C=C[C@@]1(C)CC(=O)[C@@]2(O)[C@](C)(O1)[C@@H](OC(C)=O)[C@@H](O)C1C(C)(C)CC[C@H](O)[C@@]12C (stereo partly specified)
reported.property: normalized growth
result: 0.992 (inactive)
//
molecule: CN(C/C=C/C#CC(C)(C)C)Cc1cccc2ccccc12
reported.property: normalized growth
result: 0.444 (active)
//
molecule: C1N2CN3CN1CN(C2)C3
reported.property: normalized growth
result: 0.978 (inactive)
//
molecule: CC(=O)C1CC[C@H]2C3CC[C@H]4C[C@H](O)CC[C@]4(C)C3CC[C@]12C (stereo partly specified)
reported.property: normalized growth
result: 1 (inactive)
//
molecule: COC1C=CC23c4cc5c(cc4CN(CC2O)[C@@H]3C1)OCO5 (stereo partly specified)
reported.property: normalized growth
result: 0.945 (inactive)
//
molecule: CN(C)C(=O)Oc1ccc[n+](C)c1
reported.property: normalized growth
result: 0.993 (inactive)
//
molecule: c1ccc2c(CC3=NCCN3)cccc2c1
reported.property: normalized growth
result: 0.965 (inactive)
//
molecule: O=NN(CCCl)C(=O)NCCCl
reported.property: normalized growth
result: 0.952 (inactive)
//
molecule: Cc1onc(-c2ccccc2)c1-c1ccc(S(N)(=O)=O)cc1
reported.property: normalized growth
result: 1.02 (inactive)

====

normalized growth reference
test: chemical genetic growth profiling, strain panel (AID 1159580); settings: S. cerevisiae deletion strains, growth OD, locus YPL241C, strain CIN2, hits give low values
Among all 5,500 compounds or so, about 2,000 (36%) were called active. Inconclusive results (about 18%) are left out. The list shows a part of the results.

compound: O=C1c2ccccc2C2(c3ccccc3)NCCN12 (stereo unspecified)
normalized growth: 1.02
--
compound: O=C1CSCC(=O)N1c1ccc(F)c(Cl)c1
normalized growth: 0.378
--
compound: COC(=O)[C@@H]1OC(=O)C2OC23[C@@]1(C)CCC1[C@@]2(C)CCC(=O)C(C)(C)C2C[C@@H](OC(C)=O)[C@]13C (stereo partly specified)
normalized growth: 1.01
--
compound: O=C1C2C3C=CC(C3)C2C(=O)N1c1ccc(F)c(F)c1 (stereo unspecified)
normalized growth: 0.994
--
compound: CC(=O)c1ccc(N2C(=O)CSCC2=O)cc1
normalized growth: 0.983
--
compound: COc1ccc(-c2nc(-c3ccc(-c4ccccc4)cc3)cs2)cc1
normalized growth: 1

====

experiment: chemical genetic growth profiling, strain panel (AID 1159580); conditions: S. cerevisiae deletion strains, growth OD, strain wtn01, hits give low values
Out of some 5,500 compounds screened, about 2,000 (36%) were called active. Inconclusive results (about 18%) are left out. The list shows a part of the results.
normalized growth reference

compound: NC(=O)NC1NC(=O)NC1=O (stereo not given)
normalized growth: 0.971
//
compound: O=c1cccc2n1CC1CC2CN2CCCC[C@@H]12 (stereo not given in full)
normalized growth: 1.04
//
compound: CC(=O)Oc1ccc2c(c1)CCC1C2CC[C@]2(C)C(=O)CCC12 (stereo not given in full)
normalized growth: 0.997
//
compound: CC(=O)OCC(=O)[C@@]1(O)CCC2C3CCC4=CC(=O)C=CC4(C)C3[C@@H](O)C[C@@]21C (stereo not given in full)
normalized growth: 1.01
//
compound: CC12CCC3C(=CCc4cc(O)ccc43)C1CCC2=O (stereo not given)
normalized growth: 0.986
//
compound: COP(=S)(OC)Oc1ccc([N+](=O)[O-])cc1
normalized growth: 0.977
//
compound: O=C(O)COc1ccc(Cl)cc1Cl
normalized growth: 1.02
//
compound: C[C@]12CCC3c4ccc(OC(=O)CCC(=O)O)cc4CCC3C1CCC2=O (stereo not given in full)
normalized growth: 0.929
//
compound: CN1CCC[C@@H]1CCO[C@](C)(c1ccccc1)c1ccc(Cl)cc1
normalized growth: 0.959
//
compound: COc1ccc(CCC(=O)c2c(O)cc(O[C@@H]3O[C@H](CO)C(O)[C@H](O)C3O[C@@H]3O[C@@H](C)[C@H](O)[C@@H](O)[C@H]3O)cc2O)cc1O (stereo not given in full)
normalized growth: 1

====

experiment: chemical genetic growth profiling, strain panel (AID 1159580);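 also: tested at 20 µM; growth read once vehicle control cultures reached saturation at 30 °C; 1 = growth at the plate median or of vehicle wells; lower values mean less growth of the strain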; details: S. cerevisiae deletion strains, growth OD, locus YGR040W, strain KSS1, hits give low values
The campaign covered roughly 5,500 compounds. About 2,000 (36%) were called active. Not shown: some 18% with an inconclusive outcome. The list shows a part of the results.
normalized growth reference
reported.property: normalized growth

mol: Clc1ccccc1-c1csc(-c2cccnc2)n1
result: 0.647 (active)

mol: Cn1nccc1-c1cc(Cl)cc(Cl)c1O
result: 0.745 (inactive)

mol: N#CC(C#N)=Cc1c(-c2ccccc2Cl)[nH]c2ccccc12
result: 0.907 (inactive)

mol: O=S(=O)(Nc1csc(C(F)(F)F)c1-c1ccccc1)c1cc(Br)c(Br)s1
result: 0.912 (inactive)

mol: COc1ccc(-c2csc(-c3cccnc3)n2)cc1
result: 0.858 (inactive)

mol: Brc1ccc(-c2csc(-c3cccnc3)n2)cc1
result: 0.59 (active)

mol: Cc1noc(C)c1S(=O)(=O)Nc1csc(C(F)(F)F)c1-c1ccccc1
result: 1.04 (inactive)

mol: CC1=CC(=O)N(c2ccc(OC(F)(F)F)cc2)C1=O
result: 0.384 (active)

mol: O=S(=O)(NCc1ccc(C(F)(F)F)cc1)c1cc(Br)c(Br)s1
result: 0.818 (inactive)

mol: FC(F)(F)c1cc(NC(=S)SCCSC(=S)Nc2cc(C(F)(F)F)cc(C(F)(F)F)c2)cc(C(F)(F)F)c1
result: 0.951 (inactive)

mol: O=C(Nc1cc(C(F)(F)F)cc(C(F)(F)F)c1)C(Cl)(Cl)Cl
result: 0.929 (inactive)

mol: O=S(=O)(Nc1cc(Cl)c(Cl)cc1Cl)c1cc(C(F)(F)F)cc(C(F)(F)F)c1
result: 0.9 (inactive)

mol: Nc1ccccc1C(=O)Nc1cc(C(F)(F)F)cc(C(F)(F)F)c1
result: 1.01 (inactive)

mol: Cc1ccccc1/C=C/c1c[nH]c2ccccc12
result: 0.916 (inactive)

mol: COc1ccc(-c2cn3cc(C)ccc3n2)cc1
result: 0.966 (inactive)

mol: Clc1ccc(Oc2ccnc3cc(Cl)ccc23)cc1
result: 0.67 (active)

====

normalized growth reference
test: chemical genetic growth profiling, strain panel (AID 1159580);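 also: tested at 20 µM; growth read once vehicle control cultures reached saturation at 30 °C; 1 = growth at the plate median or of vehicle wells; lower values mean less growth of the strain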; conditions: S. cerevisiae deletion strains, growth OD, locus YMR277W, strain FCP1, hits give low values
The whole screen tested about 5,500 compounds, of which about 2,000 (36%) were called active. Roughly 18% stayed inconclusive and do not appear here. The list shows a part of the results.

molecule: CC(C)(C)C1=C(C#N)C(c2c(Cl)cccc2Cl)C(C#N)=C(N)O1 (centres undefined)
normalized growth: 0.997
--
molecule: Cc1ccccc1/C=C/c1c[nH]c2ccccc12
normalized growth: 0.959
--
molecule: Cc1ccc(-c2nc(NS(=O)(=O)c3cccc4nonc34)sc2C)cc1Cl
normalized growth: 0.975
--
molecule: CC1=CC(=O)N(c2ccc(OC(F)(F)F)cc2)C1=O
normalized growth: 0.868

====

assay: chemical genetic growth profiling, strain panel (AID 1159580);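 also: tested at 20 µM; growth read once vehicle control cultures reached saturation at 30 °C; 1 = growth at the plate median or of vehicle wells; lower values mean less growth of the strain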; details: S. cerevisiae deletion strains, growth OD, locus YHR027C, strain rpn1, hits give low values
Screen size: about 5,500 compounds; about 2,000 (36%) were called active. Another 18% or so got no clear call; they are omitted. This is one part of the list.
Output condition met for records whose normalized growth is lower than 1, condition not met for records at or above 1.

molecule: Oc1c(Cl)cc(Cl)c(Cl)c1Cc1c(O)c(Cl)cc(Cl)c1Cl
group: condition met
--
molecule: CC(=O)O[C@H]1C[C@@H](OC(C)=O)C(C)(C)C2C[C@@H](OC(C)=O)[C@]3(C)C(CC[C@@]4(C)[C@H](c5ccoc5)OC(=O)[C@H]5O[C@]543)[C@]21C (some centres not stated)
group: condition met
--
molecule: CN(C/C=C/C#CC(C)(C)C)Cc1cccc2ccccc12
group: condition met
--
molecule: COc1c(C)c2c(c(O)c1C/C=C(\C)CCC(=O)O)C(=O)OC2
group: condition met
--
molecule: NC1(C(=O)O)CC1
group: condition not met
